Target: T1, LILRB2-ECD-HIS (SinoBiological Cat #: 14132-H02H) (human, UniProt Q8N423 22-460)
T1 construct: Bought protein; also called monomeric antigen LILRB2-ECD-HIS; not shown: His tag
T1 sequence (Q8N423 other isoform, or with tags, fused parts or gaps H02H H02H): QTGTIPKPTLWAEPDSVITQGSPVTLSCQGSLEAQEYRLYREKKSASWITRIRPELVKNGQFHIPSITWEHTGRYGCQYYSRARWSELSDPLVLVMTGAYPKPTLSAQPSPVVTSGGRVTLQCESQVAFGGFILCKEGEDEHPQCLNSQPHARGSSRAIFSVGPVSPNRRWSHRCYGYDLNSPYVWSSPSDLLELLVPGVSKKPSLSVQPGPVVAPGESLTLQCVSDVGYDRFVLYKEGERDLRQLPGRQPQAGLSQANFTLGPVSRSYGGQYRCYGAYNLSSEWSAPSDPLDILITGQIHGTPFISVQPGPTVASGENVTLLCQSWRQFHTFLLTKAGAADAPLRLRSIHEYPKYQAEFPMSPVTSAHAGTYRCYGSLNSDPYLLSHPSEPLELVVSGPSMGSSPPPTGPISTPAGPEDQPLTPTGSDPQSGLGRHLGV
Assay: SPR (Carterra LSA), antibody captured, antigen injected;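 note: kd obtained from kinetic analysis of antibody binding to the antigen, with association and dissociation phases fitted in the instrument software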
endpoint: Kd (nM)

>>> observed("#29 (antibody, human IgG1, V domains shown, also called D2M002-029) VH: EVQLQQSGAEVKKPGASVKISCKATGYTFSSYWIEWVKQRPGHGLEWIGEILPGSGSTNYNEKFKGKATFTADTSSNTAYMQLSSLTSEDFTVYYCARSGAGGYDSGAFGYWGQGTLVTVSS VL: DIVMTQSPASLAVSLGQRATISCRASESIDTYGNSFMHWYQQKPGQPPKLLIYRASNLESGIPARFSGSGSRTDFTLTINPVEADDVATYYCQQSNEDPWTFGGGTKLEIK")
1.59
